Consider the following compounds; for each one, report its oocyst in % of inf. control max..
# System: Eimeria maxima
# TEST DESCRIPTION: Cage experiments coccidiosis/chicks, Eimeria maxima part of the mixed infection
# Format: in vivo, chicken chicks
# CONDITION DETAILS: 10 ppm in feed
Unit % implied. Number only.

input: // returns reported oocyst in % of inf. control max. for input Cc1oc(=O)oc1Cn1c(C(F)(F)F)nc2c(Cl)cc3c(c21)OC(F)(F)C(F)(F)O3
output: 0

input: // returns reported oocyst in % of inf. control max. for input Cc1oc(=O)oc1Cn1c(C(F)(F)F)nc2cc(C(F)(F)F)c(C(F)(F)F)cc21
output: 0

input: // returns reported oocyst in % of inf. control max. for input Cc1oc(=O)oc1Cn1c(C(F)(F)F)nc2c(C(F)(F)F)cc(C(F)(F)F)cc21
output: 0

input: // returns reported oocyst in % of inf. control max. for input Cc1oc(=O)oc1Cn1c(C(F)(F)F)nc2cc(C(F)(F)F)c(Cl)cc21
output: 13

input: // returns reported oocyst in % of inf. control max. for input Cc1oc(=O)oc1Cn1c(C(F)(F)F)nc2c(Br)cc3c(c21)OC(F)(F)C(F)(F)O3
output: 0

input: // returns reported oocyst in % of inf. control max. for input Cc1oc(=O)oc1Cn1c(C(F)(F)F)nc2cc(Cl)c(C(F)(F)F)cc21
output: 0

Numbers sourced from patent US6569881B1.
